- ASSAY_NAME: Percentage unbound in human plasma
- Assay type: ADME, cell-free
Categorize each record by its fraction unbound using 1: < 0.001; 2: ≥ 0.001 and < 0.006; 3: ≥ 0.006

> print(dat)
                      smiles.representation  assigned.category
1  CCc1c(CCN2CCC(C(=O)O)CC2)cccc1-c1nsc(-c2ccc(CC(C)C)c(C#N)c2)n1                  3
2  CCc1c(CCNCC(=O)O)cccc1-c1nsc(-c2ccc(OC(C)C)c(C(F)(F)F)c2)n1                  2
3  CCc1c(CCCC(=O)O)cccc1-c1nsc(-c2ccc(N3CCCCC3)c(C(F)(F)F)c2)n1                  1
4  CCc1c(CCN2CC(C(=O)O)C2)cccc1-c1nsc(-c2ccc(CC(C)C)c(C#N)c2)n1                  3
5  CCc1c(CCCC(=O)O)cccc1-c1nsc(-c2ccc(OC(C)C)c(Cl)c2)n1                  2
6  CCc1c(CCCC(=O)O)cccc1-c1nsc(-c2cnc(OC(C)C)c(C(F)(F)F)c2)n1                  1
7  CCc1c(CCCC(=O)O)cncc1-c1nsc(-c2ccc(CC(C)C)c(C#N)c2)n1                  2
8  CCc1c(CCN(C)CC(=O)O)cccc1-c1nsc(-c2ccc(OC(C)C)c(C(F)(F)F)c2)n1                  2
9  CCc1c(CN2CC(C(=O)O)C2)cccc1-c1nsc(-c2ccc(OC(C)C)c(Cl)c2)n1                  3

# credit: ChEMBL document CHEMBL2057096
